This collection of values is drawn from patent US10381110B2.

Target System: 5-HT1B (Homo sapiens, UniProt P28222)
Sequence (P28222 whole entry, species assumed): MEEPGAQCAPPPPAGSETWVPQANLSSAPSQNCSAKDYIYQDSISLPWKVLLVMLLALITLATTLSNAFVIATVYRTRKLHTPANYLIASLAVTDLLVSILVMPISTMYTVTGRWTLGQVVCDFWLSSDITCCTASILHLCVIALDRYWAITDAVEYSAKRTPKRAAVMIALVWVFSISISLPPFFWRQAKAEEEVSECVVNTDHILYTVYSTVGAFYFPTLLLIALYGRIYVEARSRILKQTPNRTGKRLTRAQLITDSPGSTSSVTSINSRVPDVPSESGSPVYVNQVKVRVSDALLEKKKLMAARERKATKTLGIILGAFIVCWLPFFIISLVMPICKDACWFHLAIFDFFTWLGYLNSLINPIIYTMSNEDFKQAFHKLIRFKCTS
Experimental Protocol: Secondary radioligand binding assay (Ki)
Condition Summary: read-out: Experimental Receptor Binding Data-Ki 5HT1B; Table 25, GPCR panel
Quantity Kind: Ki (nM)
Numbers only, in nM.

-- ask Which Ki is reported for this compound? COc1ccc2c(c1)C(=O)N(CCN1CCN(c3ccccc3OC)CC1)C2
-- reply 306

----------
For each entry below, report its pKi value.
Target System: dopamine D2 (Homo sapiens, UniProt P14416)
Sequence (P14416 whole entry, species assumed): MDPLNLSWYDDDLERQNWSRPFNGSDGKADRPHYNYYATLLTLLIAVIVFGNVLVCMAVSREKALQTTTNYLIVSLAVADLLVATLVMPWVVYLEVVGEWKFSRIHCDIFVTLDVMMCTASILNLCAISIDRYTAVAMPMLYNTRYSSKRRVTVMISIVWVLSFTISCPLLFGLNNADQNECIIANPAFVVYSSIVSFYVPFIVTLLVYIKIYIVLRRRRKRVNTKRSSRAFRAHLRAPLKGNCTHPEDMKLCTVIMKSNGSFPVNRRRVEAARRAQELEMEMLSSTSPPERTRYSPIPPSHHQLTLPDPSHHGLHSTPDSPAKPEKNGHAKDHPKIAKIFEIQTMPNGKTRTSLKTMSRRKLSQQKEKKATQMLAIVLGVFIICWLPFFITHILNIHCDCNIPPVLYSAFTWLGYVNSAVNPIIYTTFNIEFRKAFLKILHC
Experimental Protocol: Secondary radioligand binding assay (Ki)
Condition Summary: read-out: KiD2
Give bare numbers, as −log10 of the molar value.

Reference set, count: 2
COc1cc2c(cc1OC)C(=O)N(CCCCN1CCN(c3ccccc3OC)CC1)C2	6.81
COc1ccc2c(c1)CN(CCCN1CCN(c3ccccc3OC)CC1)C2=O	5.86

Now turn to the next compound.
-- ask // fetch dopamine D2 (Homo sapiens, UniProt P14416) pKi for COc1ccc2c(c1)C(=O)N(CCN1CCN(c3ccccc3OC)CC1)C2
-- reply 5.78
